assay: Volume of distribution at steady state in C57BL/6 mouse at 1 micromol/kg, iv by HPLC/MS/MS analysis; type: ADME, organism-based; settings: in vivo, dose 1 µmol/kg, read-out: Vdss
readout kind: Vd

Task: Any idea what its Vd is? The compound is Nc1ncnc2c1ncn2[C@@H]1O[C@@H]2CO[P@@](=O)(S)O[C@@H]3[C@H](O)[C@@H](CO[P@@](=O)(S)O[C@H]2[C@H]1O)O[C@H]3n1cnc2c(N)ncnc21
Output: 0.8 L/kg

----------
experiment: Aqueous solubility of compound in phosphate buffer at pH 7.6 incubated for 2 hrs by HPLC-UV analysis; type: physicochemical
readout kind: solubility at 2 h

Task: Which solubility at 2 h reading was recorded for the compound Nc1ncnc2c1ncn2[C@@H]1O[C@@H]2CO[P@@](=O)(S)O[C@@H]3[C@H](O)[C@@H](CO[P@@](=O)(S)O[C@H]2[C@H]1F)O[C@H]3n1cnc2c(=O)[nH]ncc21 ?
Output: > 10000 µg/mL

----------
molecular target: Stimulator of interferon genes protein (Homo sapiens, UniProt Q86WV6); conditions: filed as agonist
Sequence (Q86WV6 whole entry): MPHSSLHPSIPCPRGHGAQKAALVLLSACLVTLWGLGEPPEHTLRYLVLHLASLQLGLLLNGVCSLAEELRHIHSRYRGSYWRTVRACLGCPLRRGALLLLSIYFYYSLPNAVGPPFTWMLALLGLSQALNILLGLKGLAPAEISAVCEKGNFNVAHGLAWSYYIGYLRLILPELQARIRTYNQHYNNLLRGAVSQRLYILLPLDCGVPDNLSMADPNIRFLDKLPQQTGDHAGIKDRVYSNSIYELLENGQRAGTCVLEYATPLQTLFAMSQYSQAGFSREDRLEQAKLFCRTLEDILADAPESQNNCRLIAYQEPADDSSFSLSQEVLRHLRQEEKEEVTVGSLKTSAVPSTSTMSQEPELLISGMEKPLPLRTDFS
Description: Binding affinity to recombinant human wild type STING (155 to 341 residues) expressed in Escherichia coli BL21 DE3 assessed as thermal stabilization by measuring change in melting temperature by differential scanning fluorimetry
readout kind: deltaTm (K)
Response body: numeric value in K, unit text excluded.

Task: Sample Nc1ncnc2c1ncn2[C@@H]1O[C@@H]2CO[P@@](=O)(S)O[C@@H]3[C@H](O)[C@@H](CO[P@@](=O)(S)O[C@H]2[C@H]1F)O[C@H]3c1cnn2c(=O)[nH]ncc12 — what was its deltaTm?
Output: 18

Task: Endpoint output: deltaTm of CO[C@@H]1[C@@H]2O[P@](=O)(S)OC[C@H]3O[C@@H](n4cnc5c(=O)[nH]ncc54)[C@H](O[P@](=O)(S)OC[C@H]2O[C@H]1n1cnc2c(N)ncnc21)[C@@H]3O . Value?
Output: 3.7

Task: Bench note: what deltaTm did Nc1ncnc2c1ncn2[C@@H]1O[C@@H]2CO[P@@](=O)(S)O[C@@H]3[C@H](O)[C@@H](CO[P@@](=O)(S)O[C@H]2[C@H]1F)O[C@H]3n1cnc2c(=O)[nH]nnc21 show?
Output: 23.9

Task: Report deltaTm for O=c1[nH]ncc2c1ncn2[C@@H]1O[C@@H]2CO[P@@](=O)(S)O[C@H]3[C@@H](O)[C@H](n4cnc5cncnc54)O[C@@H]3CO[P@@](=O)(S)O[C@@H]1[C@@H]2O please.
Output: 13.9

Task: Bench note: what deltaTm did Nc1ncnc2c1ncn2[C@@H]1CO[C@@H]2O[P@@](=O)(S)O[C@@H]3[C@H](O)[C@@H](CO[P@@](=O)(S)O[C@H]2[C@H]1O)O[C@H]3n1cnc2c(=O)[nH]ncc21 show?
Output: 1.75

Task: Requested read-out: deltaTm. Entry: Nc1ncnc2c1ncn2[C@@H]1O[C@@]23CO[C@@H]1[C@@H]2O[P@](=O)(S)OC[C@H]1O[C@@H](n2cnc4c(=O)[nH]ncc42)[C@H](O[P@](=O)(S)OC3)[C@@H]1O
Output: 17

Task: Which value of deltaTm has been reported for O=c1[nH]ncc2c1ncn2[C@@H]1O[C@@H]2CO[P@@](=O)(S)O[C@H]3[C@@H](O)[C@H](n4cnc5ccccc54)O[C@@H]3CO[P@@](=O)(S)O[C@@H]1[C@@H]2O in the records?
Output: 3.6

----------
assay: MRT in C57BL/6 mouse at 10 micromol/kg, iv by HPLC/MS/MS analysis; assay type: ADME, organism-based; settings: in vivo, dose 10 µmol/kg
readout kind: MRT (min)
Note: unit min is implicit; provide only the numeric part.

Task: Endpoint output: MRT of Nc1ncnc2c1ncn2[C@@H]1O[C@@H]2CO[P@@](=O)(S)O[C@@H]3[C@H](O)[C@@H](CO[P@@](=O)(S)O[C@H]2[C@H]1F)O[C@H]3n1cnc2c(=O)[nH]ncc21 . Value?
Output: 31.8

----------
experiment: Elimination half life in BALB/c syngeneic mouse tumor xenografted with mouse 4T1 cells at 0.16 to 1.4 mg/kg,IT and measured upto 25 hrs by HPLC/MS/MS analysis; format: ADME, organism-based, Neoplasm; details: dose 0.16-1.4 mg/kg, read-out: beta t1/2 (converted)
readout kind: half-life (h)
Numeric only. Scale: h

Task: May I ask what half-life has been recorded for Nc1ncnc2c1ncn2[C@@H]1O[C@@H]2CO[P@@](=O)(S)O[C@@H]3[C@H](O)[C@@H](CO[P@@](=O)(S)O[C@H]2[C@H]1F)O[C@H]3n1cnc2c(=O)[nH]ncc21 ?
Output: 7

----------
molecular target: Stimulator of interferon genes protein (Homo sapiens); experiment: Agonist activity at human STING in STING knockout human THP1-Blue ISG cells expressing IRF inducible SEAP reporter construct assessed as increase in interferon production by measuring SEAP activity incubated for 24 hrs by Fingerprinting based QUANTI-Blue colorimetric assay; format: cell-based
For each entry below, report its EC50 value.

Task: EC50 of Nc1ncnc2c1ncn2[C@@H]1O[C@@H]2CO[P@@](=O)(S)O[C@@H]3[C@H](O)[C@@H](CO[P@@](=O)(S)O[C@H]2[C@H]1F)O[C@H]3c1cnn2c(=O)[nH]ncc12 on Stimulator of interferon genes protein (Homo sapiens)?
Output: > 50 µM

Task: Record Nc1ncnc2c1ncn2[C@@H]1O[C@@H]2CO[P@@](=O)(S)O[C@@H]3[C@H](O)[C@@H](CO[P@@](=O)(S)O[C@H]2[C@H]1F)O[C@H]3n1cnc2c(=O)[nH]nnc21 : what is its EC50 with Stimulator of interferon genes protein (Homo sapiens)?
Output: > 50 µM

Task: Request: EC50, test system Stimulator of interferon genes protein (Homo sapiens), entry O=c1[nH]ncc2c1ncn2[C@@H]1O[C@@H]2CO[P@@](=O)(S)O[C@H]3[C@@H](O)[C@H](n4cnc5cncnc54)O[C@@H]3CO[P@@](=O)(S)O[C@@H]1[C@@H]2O
Output: > 50 µM

----------
experiment: MRT in C57BL/6 mouse at 1 micromol/kg, iv by HPLC/MS/MS analysis; assay type: ADME, organism-based; conditions: in vivo, dose 1 µmol/kg
readout kind: MRT (min)
Number only, in min; omit the unit.

Task: Report MRT for Nc1ncnc2c1ncn2[C@@H]1O[C@@H]2CO[P@@](=O)(S)O[C@@H]3[C@H](O)[C@@H](CO[P@@](=O)(S)O[C@H]2[C@H]1O)O[C@H]3n1cnc2c(N)ncnc21 please.
Output: 7.2

----------
Please go through the items and note down their EC50.
molecular target: UniProtKB Q86WV6; experiment: Agonist activity at human STING expressed in human THP-1 cells expressing IRF inducible SEAP reporter construct assessed as increase in interferon production incubated for 24 hrs by QUANTI-Blue colorimetric assay; type: cell-based

Task: Value lookup for EC50; key = Nc1ncnc2c1ncn2[C@@H]1CO[C@@H]2O[P@@](=O)(S)O[C@@H]3[C@H](O)[C@@H](CO[P@@](=O)(S)O[C@H]2[C@H]1O)O[C@H]3n1cnc2c(=O)[nH]ncc21
Output: > 100000 nM

Task: # query: EC50 of entry O=c1[nH]ncc2c1ncn2[C@@H]1O[C@@H]2CO[P@@](=O)(S)O[C@H]3[C@@H](O)[C@H](n4cnc5ccccc54)O[C@@H]3CO[P@@](=O)(S)O[C@@H]1[C@@H]2O
Output: > 100000 nM

Task: Look up EC50 for this molecule: CO[C@@H]1[C@@H]2O[P@](=O)(S)OC[C@H]3O[C@@H](n4cnc5c(=O)[nH]ncc54)[C@H](O[P@](=O)(S)OC[C@H]2O[C@H]1n1cnc2c(N)ncnc21)[C@@H]3O
Output: > 100000 nM

Task: Entry Nc1ncnc2c1ncn2[C@@H]1O[C@@H]2CO[P@@](=O)(S)O[C@@H]3[C@H](O)[C@@H](CO[P@@](=O)(S)O[C@H]2[C@H]1F)O[C@H]3n1cnc2c(=O)[nH]nnc21 : reported EC50 = ?
Output: 160 nM

Task: Which value of EC50 has been reported for O=c1[nH]ncc2c1ncn2[C@@H]1O[C@@H]2CO[P@@](=O)(S)O[C@H]3[C@@H](O)[C@H](n4cnc5cncnc54)O[C@@H]3CO[P@@](=O)(S)O[C@@H]1[C@@H]2O in the records?
Output: 230 nM

Task: For Nc1ncnc2c1ncn2[C@@H]1O[C@@]23CO[C@@H]1[C@@H]2O[P@](=O)(S)OC[C@H]1O[C@@H](n2cnc4c(=O)[nH]ncc42)[C@H](O[P@](=O)(S)OC3)[C@@H]1O , what is its reported EC50?
Output: 170 nM

Task: Reported EC50 for Nc1ncnc2c1ncn2[C@@H]1O[C@@H]2CO[P@@](=O)(S)O[C@@H]3[C@H](O)[C@@H](CO[P@@](=O)(S)O[C@H]2[C@H]1F)O[C@H]3c1cnn2c(=O)[nH]ncc12 : what is it?
Output: 140 nM

----------
molecular target: Stimulator of interferon genes protein (Homo sapiens); test: Agonist activity at human STING REF variant overexpressed in STING knockout human THP1-Blue ISG cells expressing IRF inducible SEAP reporter construct assessed as increase in interferon production by measuring SEAP activity incubated for 24 hrs by Fingerprinting based QUANTI-Blue colorimetric assay; format: cell-based
Sequence (Q86WV6 whole entry, looked up, stated change not applied): as the sequence (Q86WV6 whole entry) above
readout kind: pEC50
By convention, pEC50 is the negative base-10 log of a molar concentration.

Task: Using the record for Nc1ncnc2c1ncn2[C@@H]1O[C@@H]2CO[P@@](=O)(S)O[C@@H]3[C@H](O)[C@@H](CO[P@@](=O)(S)O[C@H]2[C@H]1F)O[C@H]3c1cnn2c(=O)[nH]ncc12 , report its pEC50.
Output: 4.61

Task: Name the recorded pEC50 for Nc1ncnc2c1ncn2[C@@H]1O[C@@H]2CO[P@@](=O)(S)O[C@@H]3[C@H](O)[C@@H](CO[P@@](=O)(S)O[C@H]2[C@H]1F)O[C@H]3n1cnc2c(=O)[nH]nnc21 .
Output: 5.22
